Hello, the source for this data is patent US20210163606A1, in case you need it.

Target of assay: Human NRP2 (aa23-855) with C-terminal Avi-, Myc- and His-tags (Human) (UniProt O60462)
Method summary: SPR (ProteOn XPR36), antibody captured on anti-human Fab-kappa, NRP2 as analyte, 1:1 Langmuir fit
Metric: Kd (nM)
Number in nM, nothing else.

Sample records with Kd:
# get_value(readout='Kd', item= aNRP2-14v10 (antibody, V domains shown) VH: QLQLVESGGGVVQPGRSLRLSCTVSGFSLTSYGVHWVRQAPGKGLEWVGLIWSGGSTDYSPAFISRFTISEDNSKSTVYLQMNSLRAEDTAVYFCARNSYSSGYYAMDYWGQGTTVTVSS VL: DIQLTQSPSFLSASVGDRVTITCKASQNVGTAVAWYQQKPGKAPKLLIYSASNRYTGVPSRFSGSGSGTEFTLTISSLQPEDFATYYCQQRSRYPPYTFGGGTKVEIK )
0.17

Also aNRP2-14v9 (antibody, V domains shown) VH: QLQLVESGGGVVQPGRSLRLSCTVSGFSLTSYGVHWVRQAPGKGLEWVGLIWSGGSTDYSPAFISRFTISEDNSKSTVYLQMNSLRAEDTAVYFCARNSYSSGYYAMDYWGQGTTVTVSS VL: DIQLTQSPSFLSASVGDRVTITCKASQNVGHAVAWYQQKPGKAPKLLIYSASNRYTGVPSRFSGSGSGTEFTLTISSLQPEDFATYYCQQYSRYPPYTFGGGTKVEIK , if possible.
0.15

Next binder, please.
# get_value(readout='Kd', item= aNRP2-10v13 (antibody, V domains shown) VH: EVQLVQSGAEVKKPGATVKISCKVSGFNIKDYYVHWVQQAPGKGLEWMGRIDVHDDETKYAPKFQGRVTITADTSTDTAYMELSSLRSEDTAVYYCATPIYGAREAWFAYWGQGTLVTVSS VL: DIQMTQSPSSLSASVGDRVTITCTASSSVSSSYLHWYQQKPGKAPKLLIYRTSNLASGVPSRFSGSGSGTDFTLTISSLQPEDFATYYCHQYYRSPPTFGGGTKVEIK )
0.358
